TARGET: JAK2 (Homo sapiens)
Construct: endogenous in cells
ASSAY_PROTOCOL: Kinobeads assay, JAK2 (competition binding in mixed Molt4/Ramos cell lysate, dot blot detection)
SETTINGS: read-out: JAK2 Band (Kinobeads assay potency, IC50)
Measured IC50, listed per entry for reference.

For the molecule `CN(C)C(=O)Cn1cc(Nc2ncc(F)c(NCc3c(F)cc(F)cc3F)n2)cn1` , give its measured IC50 value.
1000 to 10000 nM

Complete the entry with IC50 for `NC(=O)Cn1cc(Nc2ncc(Cl)c(NCc3c(F)cccc3F)n2)cn1`
1000 to 10000 nM

Output IC50 of `O=C(Cn1cc(Nc2ncc(Cl)c(NCc3c(F)ccc(F)c3F)n2)cn1)NC1CC1`
100 to 1000 nM

Retrieve IC50 measured for `C[C@@H](CO)NC(=O)Cn1cc(Nc2nccc(NCc3c(F)cccc3Cl)n2)cn1` and print it.
1000 to 10000 nM

Note down IC50 recorded for `O=C(Cn1cc(Nc2nccc(NCc3c(F)cc(F)cc3F)n2)cn1)N1CCOCC1`
1000 to 10000 nM

Consider the molecule `Cc1cnc(Nc2cnn(CC(=O)N3CCOCC3)c2)nc1NCc1cccc(OC(F)F)c1` and give its recorded IC50.
1000 to 10000 nM

Look up and state reported IC50 for `COc1ccccc1CNc1nc(Nc2cnn(CCO)c2)ncc1Cl`
1000 to 10000 nM

Given the molecule `O=C(O)Cn1cc(Nc2ncc(F)c(NCc3cccc(OC(F)F)c3)n2)cn1` , write its reported IC50.
> 10000 nM

---

TARGET: JAK2 (Homo sapiens, UniProt O60674)
Construct: endogenous in cells
Sequence (O60674 whole entry): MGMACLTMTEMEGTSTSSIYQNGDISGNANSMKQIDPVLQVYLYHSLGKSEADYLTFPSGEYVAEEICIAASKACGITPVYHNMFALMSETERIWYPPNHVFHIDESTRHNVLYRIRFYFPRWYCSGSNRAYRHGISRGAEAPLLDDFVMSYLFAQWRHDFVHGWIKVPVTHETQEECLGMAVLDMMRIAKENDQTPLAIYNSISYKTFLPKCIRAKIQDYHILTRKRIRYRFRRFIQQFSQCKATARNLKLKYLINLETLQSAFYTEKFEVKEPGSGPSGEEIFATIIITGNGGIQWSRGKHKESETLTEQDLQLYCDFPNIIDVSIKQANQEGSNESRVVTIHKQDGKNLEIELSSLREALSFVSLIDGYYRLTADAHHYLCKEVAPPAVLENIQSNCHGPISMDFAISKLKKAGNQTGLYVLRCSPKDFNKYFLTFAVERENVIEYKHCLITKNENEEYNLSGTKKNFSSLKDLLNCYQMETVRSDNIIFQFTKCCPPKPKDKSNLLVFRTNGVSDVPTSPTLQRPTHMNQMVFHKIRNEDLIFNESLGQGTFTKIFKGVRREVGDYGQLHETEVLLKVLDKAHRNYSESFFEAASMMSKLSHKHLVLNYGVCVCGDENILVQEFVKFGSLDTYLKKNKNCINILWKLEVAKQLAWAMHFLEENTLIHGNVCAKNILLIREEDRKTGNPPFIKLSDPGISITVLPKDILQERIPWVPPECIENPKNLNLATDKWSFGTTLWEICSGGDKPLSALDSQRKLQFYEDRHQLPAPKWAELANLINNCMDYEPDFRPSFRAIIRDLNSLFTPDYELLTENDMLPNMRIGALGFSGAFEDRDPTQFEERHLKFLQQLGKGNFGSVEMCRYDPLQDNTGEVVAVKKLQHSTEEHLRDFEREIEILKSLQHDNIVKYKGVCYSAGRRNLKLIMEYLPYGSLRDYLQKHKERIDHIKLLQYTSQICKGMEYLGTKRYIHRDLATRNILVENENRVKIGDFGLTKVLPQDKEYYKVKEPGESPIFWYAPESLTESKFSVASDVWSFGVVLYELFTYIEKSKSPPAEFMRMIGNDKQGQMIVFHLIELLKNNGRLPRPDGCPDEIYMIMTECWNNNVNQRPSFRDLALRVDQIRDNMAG
ASSAY_PROTOCOL: Kinobeads assay, JAK2 (competition binding in mixed Molt4/Ramos cell lysate, dot blot detection)
SETTINGS: read-out: JAK2 Band (Kinobeads assay potency, IC50)
pIC50: −log10 of the molar value.
MEASURED_ATTRIBUTE: pIC50

Example entries begin here.
>>> reported_value("O=C(Cn1cc(Nc2nccc(NCc3c(F)cc(F)cc3F)n2)cn1)N[C@H]1CCOC1")
"5.00 to 6.00"
>>> reported_value("Fc1cc(F)cc(CNc2nc(Nc3cnn(CC(F)F)c3)ncc2Cl)c1")
"6.00 to 7.00"
>>> reported_value("O=C(Cn1cc(Nc2nccc(NCc3c(F)ccc(F)c3F)n2)cn1)NC1CC1")
"5.00 to 6.00"
>>> reported_value("Cc1cnc(Nc2cnn(C)c2)nc1NCc1c(F)cc(F)cc1F")
"5.00 to 6.00"
>>> reported_value("Cc1cnc(Nc2cnn(CC(=O)N(C)C)c2)nc1NCc1c(F)ccc(F)c1F")
"6.00 to 7.00"

Check the records and state pIC50 for `COc1ccc(Cl)c(CNc2ccnc(Nc3cnn(CC(=O)N[C@@H](C)CO)c3)n2)c1F`
6.00 to 7.00

Give me measured pIC50, please, for this compound: `COc1ccc(F)c(CNc2nc(Nc3cnn(CCOC(C)C)c3)ncc2F)c1F`
< 5.00

Let me know recorded pIC50 for `Cn1cc(Nc2ncc(Cl)c(NCc3cccc(S(N)(=O)=O)c3)n2)cn1` , thanks.
5.00 to 6.00

Supply recorded pIC50 for `NC(=O)Cn1cc(Nc2ncc(Cl)c(NCc3cccnc3O)n2)cn1` here.
5.00 to 6.00

---

A collection of compounds and their measured IC50
TARGET: JAK2 (Homo sapiens, UniProt O60674)
Construct: endogenous in cells
ASSAY_PROTOCOL: Kinobeads assay, JAK2 (competition binding in mixed Molt4/Ramos cell lysate, dot blot detection)
SETTINGS: read-out: JAK2 Band (Kinobeads assay potency, IC50)

Worked examples, 5 compounds total:
>>> reported_value("Cc1ccc(F)c(CNc2nc(Nc3cnn(CC(N)=O)c3)ncc2Cl)c1F")
"1 to 10 µM"
>>> reported_value("CS(=O)(=O)c1ccccc1CNc1nc(Nc2cnn(CC(F)(F)F)c2)ncc1Cl")
"> 10 µM"
>>> reported_value("O=C(Cn1cc(Nc2ncc(Cl)c(NCc3ccccn3)n2)cn1)N1CCOCC1")
"1 to 10 µM"
>>> reported_value("Fc1cc(F)c(CNc2nc(Nc3cn[nH]c3)ncc2Cl)c(F)c1")
"1 to 10 µM"
>>> reported_value("OCCn1cc(Nc2ncc(Cl)c(NCc3cc(Br)ccc3F)n2)cn1")
"0.1 to 1 µM"

Please supply the value of reported IC50 for the item `COc1ccc(F)c(CNc2nc(Nc3cnn(C)c3)ncc2Cl)c1F`
1 to 10 µM

Return the recorded IC50 value; entry: `CC(C)NC(=O)Cn1cc(Nc2nccc(NCc3c(F)cc(F)cc3F)n2)cn1`
1 to 10 µM

Return the recorded IC50 value; entry: `OCCn1cc(Nc2ncc(Cl)c(NCc3c(F)ccc(F)c3F)n2)cn1`
0.01 to 0.1 µM

State its IC50 for this compound: `O=C(Cn1cc(Nc2ncc(F)c(NCc3cccc(OC(F)F)c3)n2)cn1)N1CCOCC1`
1 to 10 µM

Give the measured IC50 for `COc1ccc(S(C)(=O)=O)cc1CNc1nc(Nc2cnn(CCO)c2)ncc1F`
0.1 to 1 µM

---

Reported values of IC50 for individual entries
TARGET: TYK2 (Homo sapiens)
Construct: endogenous in cells; host or cells: Molt4 (ATCC CRL-1582) and Ramos (ATCC CRL-1596), mixed lysate 1:2
ASSAY_PROTOCOL: Kinobeads assay, TYK2 (competition binding in mixed Molt4/Ramos cell lysate, dot blot detection)
SETTINGS: Kinobeads assay, Molt4/Ramos lysate; read-out: TYK2 Band (Kinobeads assay potency, IC50)

Here is how some compounds turned out for IC50.
>>> reported_value("C[C@@H](O)Cn1cc(Nc2ncc(Cl)c(NCc3ccccc3F)n2)cn1 [Example I-256]")
"0.1 to 1 µM"
>>> reported_value("Clc1cnc(Nc2cnn(Cc3ncco3)c2)nc1NCc1ccccc1 [Example I-249]")
"1 to 10 µM"
>>> reported_value("NC(=O)Cn1cc(Nc2ncc(Cl)c(NCc3c(Cl)cccc3Cl)n2)cn1 [Example I-324]")
"0.01 to 0.1 µM"
>>> reported_value("CC(NC(=O)Cn1cc(Nc2nccc(NCc3c(F)cc(F)cc3F)n2)cn1)C1CCOC1 (stereo not drawn) [Example I-105]")
"0.01 to 0.1 µM"
>>> reported_value("OCCn1cc(Nc2ncc(F)c(NCc3c(F)cccc3F)n2)cn1 [Example I-204]")
"≤ 0.01 µM"

Please look at this compound and report its IC50: COc1ccc(F)c(CNc2nc(Nc3cnn(CC(=O)N4CCOCC4)c3)ncc2F)c1F [Example I-24]
≤ 0.01 µM

---

TARGET: TYK2 (Homo sapiens, UniProt P29597)
Construct: endogenous in cells; host or cells: Molt4 (ATCC CRL-1582) and Ramos (ATCC CRL-1596), mixed lysate 1:2
Sequence (P29597 whole entry): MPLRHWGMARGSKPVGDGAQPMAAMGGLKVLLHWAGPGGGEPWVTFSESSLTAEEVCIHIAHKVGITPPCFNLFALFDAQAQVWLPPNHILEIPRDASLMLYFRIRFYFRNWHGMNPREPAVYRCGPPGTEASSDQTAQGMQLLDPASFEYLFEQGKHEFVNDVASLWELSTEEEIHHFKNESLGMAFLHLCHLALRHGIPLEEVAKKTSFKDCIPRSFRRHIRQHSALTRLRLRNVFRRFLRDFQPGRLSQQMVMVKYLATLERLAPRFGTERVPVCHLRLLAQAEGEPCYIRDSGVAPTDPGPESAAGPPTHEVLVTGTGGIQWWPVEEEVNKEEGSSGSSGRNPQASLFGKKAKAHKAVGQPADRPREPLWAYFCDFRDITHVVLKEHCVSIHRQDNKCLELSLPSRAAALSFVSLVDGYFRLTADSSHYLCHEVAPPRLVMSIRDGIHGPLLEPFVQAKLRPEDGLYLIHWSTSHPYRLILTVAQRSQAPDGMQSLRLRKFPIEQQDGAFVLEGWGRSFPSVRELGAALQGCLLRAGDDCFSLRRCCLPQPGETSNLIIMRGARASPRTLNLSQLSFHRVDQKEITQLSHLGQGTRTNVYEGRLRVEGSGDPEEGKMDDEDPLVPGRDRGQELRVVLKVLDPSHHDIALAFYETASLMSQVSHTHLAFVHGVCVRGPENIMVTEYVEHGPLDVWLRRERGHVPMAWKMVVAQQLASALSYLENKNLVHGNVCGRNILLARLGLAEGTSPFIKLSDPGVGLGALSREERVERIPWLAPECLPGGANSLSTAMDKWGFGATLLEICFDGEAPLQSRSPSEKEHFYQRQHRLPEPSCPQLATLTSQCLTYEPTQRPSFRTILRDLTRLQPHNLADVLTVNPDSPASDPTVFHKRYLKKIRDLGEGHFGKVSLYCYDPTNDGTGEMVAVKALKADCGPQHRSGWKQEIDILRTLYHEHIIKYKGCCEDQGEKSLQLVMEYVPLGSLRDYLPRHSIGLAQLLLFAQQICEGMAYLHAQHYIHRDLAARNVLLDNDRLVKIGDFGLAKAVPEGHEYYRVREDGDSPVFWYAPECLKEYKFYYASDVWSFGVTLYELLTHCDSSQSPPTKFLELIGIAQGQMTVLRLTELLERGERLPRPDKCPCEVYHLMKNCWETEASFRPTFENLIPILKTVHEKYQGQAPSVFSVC
ASSAY_PROTOCOL: Kinobeads assay, TYK2 (competition binding in mixed Molt4/Ramos cell lysate, dot blot detection)
SETTINGS: Kinobeads assay, Molt4/Ramos lysate; read-out: TYK2 Band (Kinobeads assay potency, IC50)
pIC50: −log10 of the molar value.
This listing pairs compounds with measured pIC50.

# return pIC50 for `CN(C)CCNC(=O)Cn1cc(Nc2ncc(Cl)c(NCc3cccc(OCC#N)c3)n2)cn1` , test system: TYK2 (Homo sapiens, UniProt P29597)
6.00 to 7.00

---

TARGET: JAK2 (Homo sapiens, UniProt O60674)
Construct: endogenous in cells
ASSAY_PROTOCOL: Kinobeads assay, JAK2 (competition binding in mixed Molt4/Ramos cell lysate, dot blot detection)
SETTINGS: read-out: JAK2 Band (Kinobeads assay potency, IC50)
pIC50: −log10 of the molar value.
MEASURED_ATTRIBUTE: pIC50

Below, 8 compounds whose answers are already recorded.
>>> reported_value("O=C(Cn1cc(Nc2ncc(Cl)c(NCc3ccccc3)n2)cn1)N1CCNCC1")
"6.00 to 7.00"
>>> reported_value("NS(=O)(=O)c1cc(F)c(CNc2nc(Nc3cnn(CC(=O)N4CCCCC4)c3)ncc2F)c(F)c1")
"5.00 to 6.00"
>>> reported_value("OCCn1cc(Nc2ncc(F)c(NCc3ccccc3F)n2)cn1")
"5.00 to 6.00"
>>> reported_value("C[C@@H](O)Cn1cc(Nc2ncc(Cl)c(NCc3ccccc3F)n2)cn1")
"5.00 to 6.00"
>>> reported_value("COc1c(F)cc(F)cc1CNc1nc(Nc2cnn(CC(F)(F)F)c2)ncc1C")
"5.00 to 6.00"
>>> reported_value("C[C@@H](CO)NC(=O)Cn1cc(Nc2ncc(F)c(NCc3c(F)cc(F)cc3F)n2)cn1")
"5.00 to 6.00"
>>> reported_value("C[C@H](CO)NC(=O)Cn1cc(Nc2nccc(NCc3c(F)ccc(F)c3F)n2)cn1")
"5.00 to 6.00"
>>> reported_value("Cn1cc(Nc2nccc(NCc3c(F)cncc3F)n2)cn1")
"5.00 to 6.00"

Give the reported value of pIC50 for this record: `CNC(=O)Cn1cc(Nc2ncc(Cl)c(NCc3c(F)cccc3F)n2)cn1`
5.00 to 6.00

Tell me pIC50 reported for `CCOc1ccc(F)c(CNc2nc(Nc3cnn(CC(=O)N(C)C)c3)ncc2Cl)c1F`
5.00 to 6.00

Determine its reported pIC50: `COc1ccc(F)c(CNc2nc(Nc3cnn(CC(=O)O)c3)ncc2Cl)c1F`
5.00 to 6.00

Respond only with pIC50 recorded for `COc1ccc(S(C)(=O)=O)cc1CNc1nc(Nc2cnn(CC(F)F)c2)ncc1F`
5.00 to 6.00

Provide measured pIC50 value, entry: `Cc1cnc(Nc2cnn(C)c2)nc1NCc1c(F)ccc(F)c1F`
6.00 to 7.00

Please report pIC50 for the following compound: O=C(Cn1cc(Nc2ncc(Cl)c(NCc3ccccc3)n2)cn1)N1CC2CCC1CN2 (stereo not shown)
6.00 to 7.00

Given the compound `CCC(CC)NC(=O)Cn1cc(Nc2ncc(F)c(NCc3c(F)cc(F)cc3F)n2)cn1` , write its reported pIC50.
< 5.00

# return recorded pIC50 for input `Cc1cnc(Nc2cnn(CC(=O)N3CCOCC3)c2)nc1NCc1c(F)ccc(F)c1F`
6.00 to 7.00

Look up and report measured pIC50 for this entry: `CC(C)NC(=O)Cn1cc(Nc2nccc(NCc3c(F)ccc(C#N)c3F)n2)cn1`
5.00 to 6.00

All figures here come from patent US9296725B2.
